- experimental.target: IL-17A/A (Homo sapiens)
- assay.text: IL-17A/A HEK-Blue cell assay (SEAP reporter)
- run.parameters: HEK-Blue IL-17A reporter cells, IL17A/A 5 ng/mL, 20 hours, SEAP read at A630; read-out: HEK-Blue IL17AA (IC50 for IL-17A/A inhibition)
pIC50: −log10 of the molar value.
endpoint.name: pIC50

# count of solved cases: 5
[
  {
    "compound": "CCn1nccc1C(=O)N[C@H](c1cn2nc(C[C@H]3C[C@@H](C(F)(F)F)CC3=O)c(C3CCOCC3)nc2n1)C(C1CC1)C1CC1",
    "experimental.target": "IL-17A/A (Homo sapiens)",
    "pIC50": "> 7.00"
  },
  {
    "compound": "CCn1nccc1C(=O)N[C@H](c1cn2nc(CN3CC(F)(F)CNC3=O)c(C3CCOCC3)nc2n1)C1CCC(F)(F)CC1",
    "experimental.target": "IL-17A/A (Homo sapiens)",
    "pIC50": "6.00 to 7.00"
  },
  {
    "compound": "C[C@@H]1CN(c2nc3nc([C@@H](NC(=O)c4ccnn4C)[C@@H]4CCCC(F)(F)C4)cn3nc2C[C@H]2C[C@@H](C(F)(F)F)CNC2=O)CCO1",
    "experimental.target": "IL-17A/A (Homo sapiens)",
    "pIC50": "> 7.00"
  },
  {
    "compound": "CCn1nccc1C(=O)N[C@H](c1cn2nc(C[C@H]3CCCNC3=O)c(C3CCOCC3)nc2n1)C1CCC(F)(F)CC1",
    "experimental.target": "IL-17A/A (Homo sapiens)",
    "pIC50": "> 7.00"
  },
  {
    "compound": "CC(C)n1nccc1C(=O)N[C@H](c1cn2nc(CC3C[C@@H](C(F)(F)F)CNC3=O)c(N3CC4CC(C3)O4)nc2n1)[C@@H]1CCCC(F)(F)C1 (single isomer, unassigned) [Compound 129]",
    "experimental.target": "IL-17A/A (Homo sapiens)",
    "pIC50": "> 7.00"
  }
]

Kindly review the next compound as well.
Which value of pIC50 has been reported for CCn1nccc1C(=O)N[C@H](c1cn2nc(C[C@H]3C[C@@H](C(F)(F)F)CNC3=O)c(CC3CCCO3)nc2n1)C1CCC(F)(F)CC1 (stereo partly drawn) in the records?
> 7.00

---

- experimental.target: IL-17A/A (Homo sapiens, UniProt Q16552)
- Sequence (Q16552 24-155): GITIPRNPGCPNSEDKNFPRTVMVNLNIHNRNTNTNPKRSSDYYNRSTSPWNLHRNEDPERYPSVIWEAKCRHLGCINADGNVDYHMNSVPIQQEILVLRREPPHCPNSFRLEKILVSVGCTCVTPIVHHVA
- assay.text: IL-17A/A HEK-Blue cell assay (SEAP reporter)
- run.parameters: HEK-Blue IL-17A reporter cells, IL17A/A 5 ng/mL, 20 hours, SEAP read at A630; read-out: HEK-Blue IL17AA (IC50 for IL-17A/A inhibition)
endpoint.name: IC50

# count of solved cases: 3
[
  {
    "compound": "CCn1nccc1C(=O)N[C@H](c1cn2nc(C[C@H]3C[C@@H](C(F)(F)F)CNC3=O)c(N(C)C)nc2n1)[C@H]1CCCC(F)(F)C1 [Compound 117]",
    "experimental.target": "IL-17A/A (Homo sapiens, UniProt Q16552)",
    "IC50": "< 100 nM"
  },
  {
    "compound": "C[C@H]1CC[C@H]([C@H](NC(=O)C2(F)CC2)c2cn3nc(CC4C[C@@H](C(F)(F)F)CNC4=O)c(N4CCOCC4)nc3n2)CC1 (single isomer, unassigned) [Compound 118]",
    "experimental.target": "IL-17A/A (Homo sapiens, UniProt Q16552)",
    "IC50": "100 to 1000 nM"
  },
  {
    "compound": "CCn1nccc1C(=O)N[C@H](c1cn2nc(CC3C[C@@H](C(F)(F)F)CNC3=O)c(N3C[C@@H]4C[C@H]3CO4)nc2n1)[C@H]1CC[C@H](C)CC1 (single isomer, unassigned) [Compound 108]",
    "experimental.target": "IL-17A/A (Homo sapiens, UniProt Q16552)",
    "IC50": "< 100 nM"
  }
]

Which value of IC50 has been reported for CCn1nccc1C(=O)N[C@H](c1cn2nc(C[C@@H]3C[C@@H](C(F)(F)F)CNC3=O)cnc2n1)C1CCC(F)(F)CC1 [Compound 28] in the records?
100 to 1000 nM

Let us now turn to O=C(N[C@H](c1cn2nc(CC3C[C@H](C(F)(F)F)CNC3=O)cnc2n1)C1CCC(F)(F)CC1)c1nonc1C1CC1 (stereo partly drawn) [Compound 16]
100 to 1000 nM

Let us now turn to O=C(N[C@H](c1cn2nc(CC3C[C@@H](C(F)(F)F)CNC3=O)cnc2n1)C1CCC(F)(F)CC1)c1conc1C1CC1 (stereo partly drawn) [Compound 9]
< 100 nM

The values you see were collected from patent US20260226068A1.
